The values you see were collected from patent US20190275027A1.

test system: wild type Ebola virus, Mayinga strain; test: microbe, parasite or virus in culture; format: cell-based; conditions: Zaire ebolavirus, Huh-7, 24 h, read-out: EBOV IC50
pIC50: −log10 of the molar value.
compounds and their reported pIC50

| substance.smiles | pIC50 |
| --- | --- |
| COc1cc2c(cc1OC)[C@@H](Cc1ccc(Oc3ccc(C[C@@H]4c5cc(OC)c(OC)cc5CCN4C)cc3OC)c(OC)c1)N(C)CC2 | 6.14 |
| COc1cc2c(cc1OC)[C@@H](Cc1ccc(OC)c(Oc3cc(C[C@@H]4c5cc(OC)c(OC)cc5CCN4C)ccc3OC)c1)N(C)CC2 | 5.91 |
| COc1cc2c(cc1OC)[C@@H](Cc1ccc(Oc3cccc(C[C@@H]4c5cc(OC)c(OC)cc5CCN4C)c3)cc1)N(C)CC2 | 6.28 |

----------
Each record here notes measured pIC50.
test system: MARV; experiment: organism not typed; assay type: cell-based, Marburg virus; conditions: read-out: MARV IC50
pIC50: −log10 of the molar value.

| substance.smiles | result.operator | pIC50 |
| --- | --- | --- |
| COc1ccc(C[C@@H]2c3cc4c(cc3CCN2C)OCO4)cc1Oc1cc(C[C@@H]2c3cc4c(cc3CCN2C)OCO4)ccc1OC | = | 6.23 |
| COc1ccc2c(c1)CCN(C)[C@@H]2Cc1ccc(Oc2ccc(C[C@@H]3c4cc(OC)c(OC)cc4CCN3C)cc2)cc1 | = | 6.89 |
| COc1cc2c(cc1OC)[C@@H](Cc1ccc(Oc3ccc(C[C@@H]4c5cc(OC)c(OC)cc5CCN4C)cc3OC)nc1)N(C)CC2 | = | 6.25 |
| COc1cc2c(cc1OC)[C@@H](Cc1ccc(Oc3ccc(C[C@@H]4c5cc(OC)c(OC)cc5CCN4C)cc3OC)c(OC)c1)N(C)CC2 | = | 6.30 |
| COc1ccc2c(c1)CCN(C)[C@@H]2Cc1ccc(Oc2ccc(C[C@@H]3c4cc5c(cc4CCN3C)OCO5)cc2)cc1 | = | 6.83 |
| COc1ccc2c(c1)CCN(Cc1ccccc1)[C@@H]2Cc1ccc(Oc2ccc(C[C@@H]3c4ccc(OC)cc4CCN3Cc3ccccc3)cc2)cc1 | < | 6.00 |
| COc1cc2c(cc1OC)[C@@H](Cc1ccc(Oc3cccc(C[C@@H]4c5cc(OC)c(OC)cc5CCN4C)c3)cc1)N(C)CC2 | = | 6.11 |
| COc1cc2c(cc1OC)[C@@H](Cc1cccc(Oc3ccc(C[C@@H]4c5cc6c(cc5CCN4C)OCO6)cc3)c1)N(C)CC2 | = | 6.31 |
| CN1CCc2cc3c(cc2[C@H]1Cc1cccc(Oc2cccc(C[C@@H]4c5cc6c(cc5CCN4C)OCO6)c2)c1)OCO3 | = | 6.27 |
| COc1ccc2c(c1)CCN(C)[C@@H]2Cc1ccc(Oc2ccc(C[C@@H]3c4cc(OC)c(OC)cc4CCN3C)cn2)c(OC)c1 | = | 6.38 |
| COc1ccc2c(c1)CCN(C)[C@@H]2Cc1ccc(Oc2ccc(C[C@@H]3c4ccc(OC)cc4CCN3C)cc2OC)cc1 | = | 6.88 |
| COc1ccc2c(c1)CCN(C(C)C)[C@@H]2Cc1ccc(Oc2ccc(C[C@@H]3c4ccc(OC)cc4CCN3C(C)C)cc2)cc1 | = | 6.73 |
| COc1cc2c(cc1OC)[C@@H](Cc1ccc(OC)c(Oc3cc(C[C@@H]4c5cc(OC)c(OC)cc5CCN4C)ccc3OC)c1)N(C)CC2 | = | 5.96 |

----------
tested on: MARV; experiment: organism not typed; format: cell-based, Marburg virus; conditions: read-out: MARV IC50
pIC50: −log10 of the molar value.
Measured pIC50, listed per entry.

| substance.smiles | pIC50 |
| --- | --- |
| COc1ccc2c(c1)CCN(C)[C@@H]2Cc1cccc(Oc2cc(C[C@@H]3c4ccc(OC)cc4CCN3C)ccc2OC)c1 | 6.08 |
| COc1ccc2c(c1)CCN(C)[C@@H]2Cc1cccc(Oc2ccc(C[C@@H]3c4cc5c(cc4CCN3C)OCO5)cc2)c1 | 5.93 |
| COc1cc2c(cc1OC)[C@@H](Cc1cccc(Oc3cccc(C[C@@H]4c5cc6c(cc5CCN4C)OCO6)c3)c1)N(C)CC2 | 6.31 |

----------
tested on: wild type Ebola virus, Mayinga strain; experiment: microbe, parasite or virus in culture; type: cell-based; conditions: Zaire ebolavirus, Huh-7, 24 h, read-out: EBOV IC50
The following compounds are listed with their measured IC50 values.

| substance.smiles | IC50, nM |
| --- | --- |
| COc1cc(C[C@@H]2c3cc4c(cc3CCN2C)OCO4)ccc1Oc1ccc(C[C@@H]2c3cc4c(cc3CCN2C)OCO4)cc1OC | 372 |
| COc1ccc2c(c1)CCN(C)[C@@H]2Cc1ccc(Oc2ccc(C[C@@H]3c4cc(OC)c(OC)cc4CCN3C)cc2)cc1 | 125 |
| COc1ccc(C[C@@H]2c3cc4c(cc3CCN2C)OCO4)cc1Oc1cc(C[C@@H]2c3cc4c(cc3CCN2C)OCO4)ccc1OC | 615 |

----------
test system: wild type Ebola virus, Mayinga strain; assay: microbe, parasite or virus in culture; format: cell-based; conditions: Zaire ebolavirus, Huh-7, 24 h, read-out: EBOV IC50
pIC50: −log10 of the molar value.
readout.label: pIC50

| compound | readout.label | observed.result |
| --- | --- | --- |
| COc1ccc2cc1Oc1ccc(cc1)C[C@H]1c3cc(c(OC)cc3CCN1C)Oc1c(OC)c(OC)cc3c1[C@H](C2)N(C)CC3 [TETN, tetrandrine, reference compound] | pIC50 | 6.53 |
| COc1cc2c(cc1OC)[C@@H](Cc1cccc(Oc3cc(C[C@@H]4c5cc(OC)c(OC)cc5CCN4C)ccc3OC)c1)N(C)CC2 | pIC50 | 5.96 |
| COc1ccc2c(c1)CCN(C(C)C)[C@@H]2Cc1ccc(Oc2ccc(C[C@@H]3c4ccc(OC)cc4CCN3C(C)C)cc2)cc1 | pIC50 | 6.60 |

----------
Listed next: entries and their corresponding IC50.
test system: MARV; assay: organism not typed; type: cell-based, Marburg virus; conditions: read-out: MARV IC50

| molecule | IC50 (nM) |
| --- | --- |
| COc1ccc2c(c1)CCN(C)[C@@H]2Cc1cccc(Oc2ccc(C[C@@H]3c4cc(OC)c(OC)cc4CCN3C)cc2)c1 [Compound B4-21] | 467 |
| COc1cc2c(cc1OC)[C@@H](Cc1ccc(Oc3cc(C[C@@H]4c5cc(OC)c(OC)cc5CCN4C)ccc3OC)c(OC)c1)N(C)CC2 [Compound 2] | 1240 |
| COc1ccc2cc1Oc1ccc(cc1)C[C@H]1c3cc(c(OC)cc3CCN1C)Oc1c(OC)c(OC)cc3c1[C@H](C2)N(C)CC3 [TETN, tetrandrine, reference compound] | 370 |
| COc1ccc2c(c1)CCN(C)[C@@H]2Cc1ccc(OC)c(Oc2cc(C[C@@H]3c4ccc(OC)cc4CCN3C)ccc2OC)c1 [Compound B3-42] | 418 |

----------
# solubility values compiled below
assay: physchem; details: pH 7.4, aqueous buffer, kinetic from dmso stock
readout.label: solubility

| compound | readout.label | observed.result |
| --- | --- | --- |
| COc1cc2c(cc1OC)[C@@H](Cc1ccc(Oc3ccc(C[C@@H]4c5cc(OC)c(OC)cc5CCN4C)cc3OC)c(OC)c1)N(C)CC2 [Compound 1] | solubility | > 100 µM |
| COc1ccc2c(c1)CCN(C)[C@@H]2Cc1ccc(Oc2ccc(C[C@@H]3c4cc(OC)c(OC)cc4CCN3C)cn2)c(OC)c1 [Compound 5] | solubility | > 100 µM |
| COc1cc2c(cc1OC)[C@@H](Cc1ccc(OC)c(Oc3cc(C[C@@H]4c5cc(OC)c(OC)cc5CCN4C)ccc3OC)c1)N(C)CC2 [Compound 3] | solubility | > 100 µM |

----------
tested on: wild type Ebola virus, Mayinga strain; assay: microbe, parasite or virus in culture; assay type: cell-based; details: Zaire ebolavirus, Huh-7, 24 h, read-out: EBOV IC50
Consider the cut-off 0.8 µM. If the recorded IC50 is strictly smaller, the label is label 1; if not, the label is label 0.

| substance.smiles | label.class |
| --- | --- |
| COc1ccc2c(c1)CCN(C)[C@@H]2Cc1cccc(Oc2ccc(C[C@@H]3c4cc(OC)c(OC)cc4CCN3C)cc2)c1 | label 1 |
| COc1cc2c(cc1OC)[C@@H](Cc1ccc(Oc3cc(C[C@@H]4c5cc(OC)c(OC)cc5CCN4C)ccc3OC)c(OC)c1)N(C)CC2 | label 0 |
| COc1ccc2c(c1)CCN(C)[C@@H]2Cc1ccc(OC)c(Oc2cc(C[C@@H]3c4ccc(OC)cc4CCN3C)ccc2OC)c1 | label 1 |
| COc1cc2c(cc1OC)[C@@H](Cc1cccc(Oc3ccc(C[C@@H]4c5cc6c(cc5CCN4C)OCO6)cc3)c1)N(C)CC2 | label 1 |
| COc1ccc2c(c1)CCN(C)[C@@H]2Cc1cccc(Oc2cc(C[C@@H]3c4ccc(OC)cc4CCN3C)ccc2OC)c1 | label 0 |
| COc1ccc2c(c1)CCN(C)[C@@H]2Cc1ccc(Oc2ccc(C[C@@H]3c4cc(OC)c(OC)cc4CCN3C)cn2)c(OC)c1 | label 1 |
| COc1cc2c(cc1OC)[C@@H](Cc1ccc(Oc3ccc(C[C@@H]4c5cc(OC)c(OC)cc5CCN4C)cc3OC)nc1)N(C)CC2 | label 1 |
